B1: RAB11A (parent)
chain: AVPTDEARAFAEKNGLSFIETSAL

Variants of: B1
Assay: protein stability index of a GFP-peptide fusion (GPS, HEK-293T) (PSI 1-6); higher = more stable;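 also: lentivirally expressed fusions sorted by FACS into six bins by GFP to DsRed ratio, PSI derived from sequencing read proportions per bin multiplied by bin number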
Conditions: c terminus: a fixed tail appended
Binary call on protein stability index: T from 3 upward, F beneath that.

> print(dat)
    mutation  class
 1      I19Y      T
 2      K13Q      F
 3       T4F      F
 4      T21W      F
 5      L16T      T
 6       A9W      F
 7       A9K      F
 8      T21A      F
 9       T4C      F
10      N14C      F

Tell me whether protein stability index is at least 3 here: D5P F

Given E6R , state whether its protein stability index is at least 3. F

Dear colleague, could you confirm whether N14L has protein stability index at or above 3? F

Origin of values: the supplement of paper PMC10567573
